Reported MCC by item:
protocol.description: Cytotoxicity against MDCK cells assessed as morphological changes
Format: cell-based, Canis lupus familiaris
stated.conditions: dog

- Nc1nc(CC(O)c2ccccc2C(F)(F)F)c(Br)c(=O)[nH]1 (configuration not stated): > 100 µM
- CCCc1nc(N)[nH]c(=O)c1Br: > 100 µM
- CCCCCc1nc(N)[nH]c(=O)c1Br: > 100 µM
- NC(=O)c1ncn([C@@H]2O[C@H](CO)[C@@H](O)[C@H]2O)n1 [RIBAVIRIN]: > 100 µM
- CC(N)C12CC3CC(CC(C3)C1)C2 (configuration not stated) [RIMANTADINE]: > 200 µM

Enquiry: Reported MCC, compound `CC(C)(O)Cc1nc(N)[nH]c(=O)c1Br` : ____
Return: > 100 µM

Enquiry: Reported MCC, compound `Nc1nc(CCc2ccccc2)c(Br)c(=O)[nH]1` : ____
Return: > 100 µM

Enquiry: Reported MCC, compound `Cc1cc(C)c(/C=C/c2nc(N)[nH]c(=O)c2Br)c(C)c1` : ____
Return: > 20 µM

Enquiry: Reported MCC, compound `CCCCc1nc(N)[nH]c(=O)c1Br` : ____
Return: > 100 µM

Enquiry: Reported MCC, compound `COc1ccc(/C=C/c2nc(N)[nH]c(=O)c2Br)cc1OC` : ____
Return: 100 µM

Enquiry: Reported MCC, compound NC12CC3CC(CC(C3)C1)C2 [AMANTADINE] : ____
Return: > 200 µM

Enquiry: Reported MCC, compound Nc1nc(CC(O)c2ccc(Cl)cc2)c(Br)c(=O)[nH]1 (configuration not stated) : ____
Return: > 100 µM
